Entries and their IC50 values follow.
target: glucosylceramide synthase (GCS) (Mus musculus); construct: IC50 values for GCS activity were measured using living cells; endogenous in cells; assay: GCS activity in living macrophage  cells (C6-NBD lipid, TLC readout); assay type: cell-based; settings: read-out: GCS [nM] (IC50)
Sequence (O88693 whole entry): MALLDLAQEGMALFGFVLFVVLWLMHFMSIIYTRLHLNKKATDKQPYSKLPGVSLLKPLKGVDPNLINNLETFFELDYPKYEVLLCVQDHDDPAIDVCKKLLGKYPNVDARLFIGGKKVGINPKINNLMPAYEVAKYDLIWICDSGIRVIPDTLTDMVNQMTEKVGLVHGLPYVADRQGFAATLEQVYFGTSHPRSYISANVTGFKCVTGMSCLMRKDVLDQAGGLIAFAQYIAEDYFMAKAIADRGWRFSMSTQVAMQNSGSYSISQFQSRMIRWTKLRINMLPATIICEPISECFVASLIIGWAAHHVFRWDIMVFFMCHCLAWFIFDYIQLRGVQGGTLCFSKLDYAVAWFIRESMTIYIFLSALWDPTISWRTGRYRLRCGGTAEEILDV

- mol: "OC[C@H]1[C@@H](O)[C@H](O)[C@@H](O)CN1CCCC(F)(F)COCc1ccc(-c2ccccc2)cc1"
  IC50 [nM]: 15
- mol: "OC[C@H]1[C@@H](O)[C@H](O)[C@@H](O)CN1CCCCCOCc1ccc(-c2ccccc2)cc1F"
  IC50 [nM]: 5
- mol: "OC[C@@H]1[C@@H](O)[C@H](O)[C@@H](O)CN1CCCCCOCc1ccccc1-c1ccccc1"
  IC50 [nM]: 50
- mol: "OC[C@@H]1[C@@H](O)[C@H](O)[C@@H](O)CN1CCCCCOCc1ccc(-c2ccnc(F)c2)cc1"
  IC50 [nM]: 150
- mol: "Cc1cccc(-c2ccc(COCCCCCN3C[C@H](O)[C@@H](O)[C@H](O)[C@H]3CO)cc2)c1"
  IC50 [nM]: 100
- mol: "OC[C@@H]1[C@@H](O)[C@H](O)[C@@H](O)CN1CCCCCOCc1ccc(-c2ccccc2)c(F)c1"
  IC50 [nM]: 25
- mol: "OC[C@@H]1[C@@H](O)[C@H](O)[C@@H](O)CN1CCCCCOCc1ccc(-c2ccccc2F)cc1"
  IC50 [nM]: 74
- mol: "Cc1ccc(-c2ccc(COCCCCCN3C[C@H](O)[C@@H](O)[C@H](O)[C@H]3CO)cc2)cc1"
  IC50 [nM]: 100
- mol: "OC[C@H]1[C@@H](O)[C@H](O)[C@@H](O)CN1CCCCCOCc1ccc(-c2ccccc2)cc1C(F)(F)F"
  IC50 [nM]: 3
- mol: "OC[C@@H]1[C@@H](O)[C@H](O)[C@@H](O)CN1CCCCCOCc1ccc(-c2ccc(F)cc2)cc1"
  IC50 [nM]: 25
- mol: "N#Cc1ccc(-c2ccc(COCCCCCN3C[C@H](O)[C@@H](O)[C@H](O)[C@H]3CO)cc2)cc1"
  IC50 [nM]: 150
- mol: "OC[C@H]1[C@@H](O)[C@H](O)[C@@H](O)CN1CCCCCOCc1ccccc1-c1ccccc1"
  IC50 [nM]: 25
- mol: "OC[C@@H]1[C@@H](O)[C@H](O)[C@@H](O)CN1CCCC(F)(F)COCc1ccc(-c2ccccc2)cc1"
  IC50 [nM]: 15

---

target: GBA1 (Homo sapiens, UniProt P04062, R534H); construct: purchased Sanofi (Cerezyme); experiment: GBA1 activity, recombinant human enzyme (Cerezyme), 4-MU-β-glucoside substrate; assay type: biochemical;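 note: enzyme activity read out as fluorescence of the 4-MU released from the substrate, measured on a fluorimeter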
Sequence (P04062 40-536 R534H): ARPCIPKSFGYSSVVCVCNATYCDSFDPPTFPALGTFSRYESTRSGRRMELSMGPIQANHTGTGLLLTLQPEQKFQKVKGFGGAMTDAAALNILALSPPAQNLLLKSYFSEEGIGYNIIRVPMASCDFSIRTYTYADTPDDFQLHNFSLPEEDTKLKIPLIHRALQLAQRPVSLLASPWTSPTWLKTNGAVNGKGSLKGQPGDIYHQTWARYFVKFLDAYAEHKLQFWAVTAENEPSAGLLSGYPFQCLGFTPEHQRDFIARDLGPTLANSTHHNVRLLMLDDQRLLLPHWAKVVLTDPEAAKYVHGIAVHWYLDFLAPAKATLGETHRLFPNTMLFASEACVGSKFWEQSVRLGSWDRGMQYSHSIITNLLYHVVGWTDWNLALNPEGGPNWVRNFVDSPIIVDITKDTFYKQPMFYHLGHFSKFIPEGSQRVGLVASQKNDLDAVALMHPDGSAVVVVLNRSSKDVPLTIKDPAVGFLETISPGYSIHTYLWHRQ
experimental-readout: log10 IC50 (log10 of the value in nM)

- compound: "COc1ccccc1-c1ccc(COCCCCCN2C[C@H](O)[C@@H](O)[C@H](O)[C@H]2CO)cc1 [Compound 31]"
  log10 IC50: 2.78
- compound: "OC[C@H]1[C@@H](O)[C@H](O)[C@@H](O)CN1CCCCCOCc1ccc(-c2ccccc2)c(F)c1 [Compound 47]"
  log10 IC50: 3.78
- compound: "OC[C@@H]1[C@@H](O)[C@H](O)[C@@H](O)CN1CCCCCOCc1ccc(-c2ccccc2)cn1 [Compound 12]"
  log10 IC50: 3.18
- compound: "OC[C@H]1[C@@H](O)[C@H](O)[C@@H](O)CN1CCCCCOCc1cccc(-c2ccccc2)c1 [Compound 41]"
  log10 IC50: 4.30
- compound: "OC[C@@H]1[C@@H](O)[C@H](O)[C@@H](O)CN1CCCCCOCc1ccc(-c2ccc3c(c2)OCCCO3)cc1 [Compound 19]"
  log10 IC50: 3.48
- compound: "OC[C@H]1[C@@H](O)[C@H](O)[C@@H](O)CN1CCCCCOCc1ccc(-c2ccccc2)cc1C(F)(F)F [Compound 44]"
  log10 IC50: 3.70
- compound: "OC[C@@H]1[C@@H](O)[C@H](O)[C@@H](O)CN1CCCCCOCc1ccc(-c2ccccc2)cc1C(F)(F)F [Compound 8]"
  log10 IC50: 2.30
